Recorded CD28 scFv signal for the following binders
- experimental-target: anti-CD28 scFv (VH - linker 1 - VL) (biotinylated (site not stated))
- Sequence (scFv, as listed by the source): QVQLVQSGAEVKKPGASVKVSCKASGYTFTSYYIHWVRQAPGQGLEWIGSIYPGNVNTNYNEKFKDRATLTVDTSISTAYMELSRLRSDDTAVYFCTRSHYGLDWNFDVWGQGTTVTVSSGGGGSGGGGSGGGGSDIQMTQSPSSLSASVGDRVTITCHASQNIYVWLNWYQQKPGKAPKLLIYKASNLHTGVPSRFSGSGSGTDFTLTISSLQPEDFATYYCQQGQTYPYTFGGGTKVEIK
- procedure-text: phage ELISA; biotinylated anti-CD28 scFv on neutravidin plate, clonal phage supernatant, anti-M13-HRP detection;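 note: before phage addition, wells were pretreated with soluble CD28 protein in blocking buffer, or with blocking buffer only as the comparison, then phage were added without washing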
Where no end group is shown, it is not given here.

Task item: Recorded CD28 scFv signal of MDWCPRDLWHECFA (peptide, not shown: large carriers, cysteine pairing not given here; also: phage-displayed pIII fusion, pIII and linker not given here, Clonal phage supernatant) [Phage-26] , please.
Reply: 2.71

Task item: And MDWCPRERWVDCFF (peptide, not shown: large carriers, cysteine pairing not given here; also: displayed on phage as fusion to pIII, linker not given here, Clonal phage supernatant) [Phage-9] ?
Reply: 2.04

Reference source for all entries: patent US20260242478A1
